- Assay Details: Test 1 stability data under 25° C. for 6 months (liquid chromatography)
- Assay type: physicochemical
- Protocol Conditions: 25° C., 2 months; in % (unit assumed)
Measured Parameter: Major peak

>  <Molecule>
CCCCCCOC(=O)/N=C(/N)c1ccc(NCc2nc3cc(C(=O)N(CCC(=O)OCC)c4ccccn4)ccc3n2C)cc1.CS(=O)(=O)O [Crystal form N]

>  <Major peak>
99.618

$$$$
>  <Molecule>
CCCCCCOC(=O)/N=C(/N)c1ccc(NCc2nc3cc(C(=O)N(CCC(=O)OCC)c4ccccn4)ccc3n2C)cc1.CS(=O)(=O)O [Crystal form II]

>  <Major peak>
99.408

$$$$
>  <Molecule>
CCCCCCOC(=O)/N=C(/N)c1ccc(NCc2nc3cc(C(=O)N(CCC(=O)OCC)c4ccccn4)ccc3n2C)cc1.CS(=O)(=O)O [Crystal form M]

>  <Major peak>
99.614

$$$$
>  <Molecule>
CCCCCCOC(=O)/N=C(/N)c1ccc(NCc2nc3cc(C(=O)N(CCC(=O)OCC)c4ccccn4)ccc3n2C)cc1.CS(=O)(=O)O [Semihydrate crystal form]

>  <Major peak>
99.631

$$$$
>  <Molecule>
CCCCCCOC(=O)/N=C(/N)c1ccc(NCc2nc3cc(C(=O)N(CCC(=O)OCC)c4ccccn4)ccc3n2C)cc1.CS(=O)(=O)O [Crystal form I]

>  <Major peak>
99.574

$$$$
